- experimental target: Calcium/calmodulin-dependent protein kinase type II subunit alpha (Homo sapiens) (UniProt Q9UQM7);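 note: reported value is a mean percent inhibition of CAMK2A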
- Sequence (Q9UQM7 whole entry): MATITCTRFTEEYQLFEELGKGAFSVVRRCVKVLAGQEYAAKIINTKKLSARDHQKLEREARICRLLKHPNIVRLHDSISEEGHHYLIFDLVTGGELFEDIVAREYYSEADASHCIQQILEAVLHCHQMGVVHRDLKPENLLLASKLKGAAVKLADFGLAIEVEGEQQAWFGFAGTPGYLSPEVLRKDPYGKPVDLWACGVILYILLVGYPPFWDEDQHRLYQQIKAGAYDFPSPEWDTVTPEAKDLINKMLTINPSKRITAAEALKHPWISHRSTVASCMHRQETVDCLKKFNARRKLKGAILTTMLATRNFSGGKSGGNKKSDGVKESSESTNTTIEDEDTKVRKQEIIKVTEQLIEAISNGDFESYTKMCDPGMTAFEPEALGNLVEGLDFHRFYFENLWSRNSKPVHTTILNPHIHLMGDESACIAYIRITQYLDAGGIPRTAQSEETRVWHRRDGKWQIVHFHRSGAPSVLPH
- experimental conditions: at 1 µM
recorded metric: inhibition (%)

1) Cc1nn(C)c2cc(N(C)c3ccnc(Nc4cccc(S(N)(=O)=O)c4)n3)ccc12    1.72
2) NC(=O)c1ccc(-c2nc(-c3ccccn3)c(-c3ccc4c(c3)OCO4)[nH]2)cc1    3.33
3) COc1cccc(-n2ncc3c(N/N=C/c4cccc(F)c4)ncnc32)c1    2.7
4) CCn1c(-c2nonc2N)nc2cncc(C(=O)N3CC[C@H](N)C3)c21    3.64
5) NCc1ccc(-c2nc(-c3ccc(Cl)c(O)c3)c(-c3ccncc3)[nH]2)cc1    2.11
6) CS(=O)(=O)CCN(CC#N)Cc1ccc(-c2ccc3ncnc(Nc4ccc(OCc5cccc(F)c5)c(Cl)c4)c3c2)o1    -2.02
7) c1cnn2ncc(-c3ccnc(Nc4ccc5c(c4)OCCO5)n3)c2c1    15.3
